Cited source for all entries: patent US20180244758A1

Provide the recorded IC50 (nM), neutralization of rVSV-GP for the entries that follow.
target-or-system: T1, TAFV GP on VSV pseudotype particles (Tai Forest virus (TAFV), UniProt Q66810 33-676)
T1 sequence: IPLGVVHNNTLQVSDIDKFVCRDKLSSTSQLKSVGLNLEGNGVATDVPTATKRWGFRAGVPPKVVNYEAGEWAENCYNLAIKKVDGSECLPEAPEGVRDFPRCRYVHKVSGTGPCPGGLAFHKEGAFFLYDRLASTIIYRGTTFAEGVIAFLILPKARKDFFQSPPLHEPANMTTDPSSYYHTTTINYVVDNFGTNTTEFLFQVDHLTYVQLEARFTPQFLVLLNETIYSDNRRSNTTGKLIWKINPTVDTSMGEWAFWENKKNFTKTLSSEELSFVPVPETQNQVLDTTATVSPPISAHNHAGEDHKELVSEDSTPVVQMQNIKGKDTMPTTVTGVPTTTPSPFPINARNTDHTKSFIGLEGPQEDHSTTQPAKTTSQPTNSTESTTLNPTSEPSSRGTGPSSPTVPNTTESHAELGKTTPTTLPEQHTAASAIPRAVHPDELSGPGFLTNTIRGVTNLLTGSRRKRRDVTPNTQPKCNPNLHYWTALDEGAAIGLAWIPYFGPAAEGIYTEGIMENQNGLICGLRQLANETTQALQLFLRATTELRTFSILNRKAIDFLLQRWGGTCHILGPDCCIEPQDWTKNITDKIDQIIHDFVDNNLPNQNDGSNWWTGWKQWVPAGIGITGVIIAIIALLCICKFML
assay-explanation: cell-based or functional assay

Write down IC50 (nM), neutralization of rVSV-GP measured for item PE-87 W103A (antibody, V domains shown) VH: QVQLVQSGVTLVQPGGSLRVSCAASGFTFSSYAMSWVRQAPGKGLEWVSAISGLGGSTYYADSVKGRFTISRDNSKNTLYLQMNSLRAEDTAVYYCAKDHRVAAAGYHFDYWGQGALVTVSS VL: DIVLTQSPSTLSASVGDRVTITCRASQSISSWLAWYQQKPGEAPKLLISDASSLESGVPSRFSGSGSGTEFTLTISSLQPDDFATYYCQQYYSSPTFGGGTKVEIK > 150 nM

Write down IC50 (nM), neutralization of rVSV-GP measured for item PE-87 Y111A (antibody, V domains shown) VH: QVQLVQSGVTLVQPGGSLRVSCAASGFTFSSYAMSWVRQAPGKGLEWVSAISGLGGSTYYADSVKGRFTISRDNSKNTLYLQMNSLRAEDTAVYYCAKDHRVWAAGYHFDAWGQGALVTVSS VL: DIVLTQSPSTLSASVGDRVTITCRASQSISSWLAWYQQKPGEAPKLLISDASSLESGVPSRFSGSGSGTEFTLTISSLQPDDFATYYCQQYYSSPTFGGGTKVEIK 1.1 nM
